Test Method Notes: Kinetic solubility of the compound in pH 7.4 phosphate buffered saline
Assay type: physicochemical
Test Context: read-out: Kinetic_solubility

| Molecule | Reading Unit | solubility kinetic |
| --- | --- | --- |
| COC(C)(C)CCC[C@@H](C)[C@H]1CC[C@H]2[C@@H](OC(=O)c3cccc(O)c3)CCC[C@]12C | ng/mL | 2.3 |
| CC(C)CCC[C@@H](C)[C@H]1CC[C@H]2[C@H](CNc3ccc(O)cc3)CCC[C@]12C | ng/mL | 2.7 |
| CC(C)CCC[C@@H](C)[C@H]1CC[C@H]2[C@H](Nc3ccc(O)cc3)CCC[C@]12C | ng/mL | 0.26 |
| CC(C)CCC[C@@H](C)[C@H]1CC[C@H]2[C@@H](NC(=O)c3cccc(O)c3)CCC[C@]12C | ng/mL | 680 |
| COC(C)(C)CCC[C@@H](C)[C@H]1CC[C@H]2[C@@H](Nc3cccc(O)c3)CCC[C@]12C | ng/mL | 14 |
| C[C@H](CCCC(C)(C)O)[C@H]1CC[C@H]2[C@@H](OC(=O)c3cccc(O)c3)CCC[C@]12C | ng/mL | 31 |
| CC(C)CCC[C@@H](C)[C@H]1CC[C@H]2[C@@H](Nc3ccc(O)cc3)CCC[C@]12C | ng/mL | 2.6 |
| C[C@H](CCCC(C)(C)O)[C@H]1CC[C@H]2[C@@H](Nc3ccc(O)cc3)CCC[C@]12C | ng/mL | 4.2 |
| CC(C)CCC[C@@H](C)[C@H]1CC[C@H]2[C@@H](OC(=O)c3cccc(O)c3)CCC[C@]12C | ng/mL | 670 |
| COC(C)(C)CCC[C@@H](C)[C@H]1CC[C@H]2[C@H](CNc3cccc(O)c3)CCC[C@]12C | ng/mL | 120 |
